Assay: in vitro
Conditions: human, uninfected MT-4 cells
Description: Concentration required to cause 50% death of uninfected MT-4 cells
quantityMeasured: CC50 (µM)
API: value field is a number in µM; no unit string.

compound	measValue
Cc1cn(C2CC(N=[N+]=[N-])C(COC(=O)CCCC(=O)N3CCCN(C(=O)OC(C)(C)C)CCN(C(=O)OC(C)(C)C)CCCN(C(=O)OC(C)(C)C)CC3)O2)c(=O)[nH]c1=O (stereo not drawn)	50
O=C(CCCC(=O)N1CCCNCCNCCCNCC1)N1CCCNCCNCCCNCC1	50

# get_value(readout='CC50', item= c1cc(CN2CCCNCCNCCCNCC2)ccc1CN1CCCNCCNCCCNCC1 )
50
